All values here come from patent US9499550B2.

Test system: HCV genotype 1b (Con1) replicon in HUH-7 cells
Assay: HCV replicon luciferase reporter assay, genotype 1b
Format: cell-based
Details: Hepatitis C virus, Huh-7, 72 h, HCV genotype 1b replicon luciferase, 3 days incubation, read-out: LE_1b (EC50, range)
pEC50: −log10 of the molar value.
parameter measured: pEC50

smiles data | tested on | parameter measured | result
[2H]C([2H])([2H])C(OC(=O)N[C@@H]1C(=O)N2C[C@H](Oc3ncc(OC)c4ccccc34)C[C@H]2C(=O)N[C@]2(C(=O)NS(=O)(=O)C3CC3)C[C@H]2/C=C\CC[C@@H](C)C[C@H]1CC)(C([2H])([2H])[2H])C(F)(F)F | HCV genotype 1b (Con1) replicon in HUH-7 cells | pEC50 | 9.30 to 10.00

In the following, a different compound is considered.
Query string: Name the recorded pEC50 for CCn1nc(O[C@@H]2C[C@H]3C(=O)N[C@]4(C(=O)NS(=O)(=O)C5(C)CC5)C[C@H]4/C=C\CC[C@H](C)C[C@@H](C)[C@H](NC(=O)C(=O)N(C)C)C(=O)N3C2)c2ccccc2c1=O .
Result string: < 7.06
